Just for reference, paper PMC2756588 is where these values come from.

Assignment: determine reported SPOT intensity for the given binders.
- SYSTEM_UNDER_TEST: T1, Cdc25, P04821
- T1 sequence (P04821 50-136, looked up): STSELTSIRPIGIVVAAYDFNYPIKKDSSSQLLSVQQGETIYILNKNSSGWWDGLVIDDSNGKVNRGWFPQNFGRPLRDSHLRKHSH
- ASSAY_COMMENT: SPOT array
- PROTOCOL_CONDITIONS: median of control spots 969
Numbers only.

// worked examples, SPOT intensity included
# lookup: SPOT intensity of `IPSRPAPKPPSSASA`
0

Next up: `RRLRDKYKLPIVDAD`
18

Next up: `LYKRKPILLPDPKPL`
0

Batch: SPOT intensity for all items listed.
1. PKRRAPPPVPKKPSS
2. QQEQNTPPLPPKPKS
3. PVLPPPRSPNRPTLS
4. ISRRRLPVIMHRLKM
5. VRTRRRPPPPPIPST
6. TSFKGRPKPPKTLKH
7. VQPTAAPATPPRHIS
8. FHLNPKRSAVLYDRP

1: 3; 2: 0; 3: 0; 4: 51; 5: 0; 6: 2; 7: 2; 8: 25

Batch: SPOT intensity for all items listed.
1. TPTSGPPLLPPRNTM
2. KTKQQKPAIPQKKSF
3. LASNSPPVYPKRIRH

[0, 3, 0]
